testTarget: CYP3A (Homo sapiens)
Sequence (P08684 2-503): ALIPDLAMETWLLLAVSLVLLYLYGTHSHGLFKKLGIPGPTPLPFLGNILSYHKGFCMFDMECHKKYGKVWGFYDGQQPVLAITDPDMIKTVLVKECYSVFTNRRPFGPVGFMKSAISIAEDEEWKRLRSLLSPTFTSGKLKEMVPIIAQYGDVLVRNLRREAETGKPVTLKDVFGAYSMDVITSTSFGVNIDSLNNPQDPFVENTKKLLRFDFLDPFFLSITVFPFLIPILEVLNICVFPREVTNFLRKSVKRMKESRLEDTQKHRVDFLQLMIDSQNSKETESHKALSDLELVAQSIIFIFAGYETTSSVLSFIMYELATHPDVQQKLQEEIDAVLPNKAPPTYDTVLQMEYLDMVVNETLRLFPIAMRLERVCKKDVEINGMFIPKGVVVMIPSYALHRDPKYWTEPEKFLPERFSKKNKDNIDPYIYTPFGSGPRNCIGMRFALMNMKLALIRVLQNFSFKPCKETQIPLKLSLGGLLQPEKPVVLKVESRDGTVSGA
assayNotes: Cytochrome P450 inhibition assay in HLMs
Format: in vitro ADME
measurementContext: pooled human liver microsomes, probe midazolam (1'-hydroxylation), up to 50 μM
pIC50: −log10 of the molar value.
metric: pIC50

Name the reported pIC50 value associated with the compound `COc1ccc(-c2c(-c3ccc(O)c(OC)c3)oc3cc(OC)c(OC)cc3c2=O)cc1`
< 4.30

###

testTarget: CYP2B6 (Homo sapiens, UniProt P20813)
Sequence (P20813 whole entry): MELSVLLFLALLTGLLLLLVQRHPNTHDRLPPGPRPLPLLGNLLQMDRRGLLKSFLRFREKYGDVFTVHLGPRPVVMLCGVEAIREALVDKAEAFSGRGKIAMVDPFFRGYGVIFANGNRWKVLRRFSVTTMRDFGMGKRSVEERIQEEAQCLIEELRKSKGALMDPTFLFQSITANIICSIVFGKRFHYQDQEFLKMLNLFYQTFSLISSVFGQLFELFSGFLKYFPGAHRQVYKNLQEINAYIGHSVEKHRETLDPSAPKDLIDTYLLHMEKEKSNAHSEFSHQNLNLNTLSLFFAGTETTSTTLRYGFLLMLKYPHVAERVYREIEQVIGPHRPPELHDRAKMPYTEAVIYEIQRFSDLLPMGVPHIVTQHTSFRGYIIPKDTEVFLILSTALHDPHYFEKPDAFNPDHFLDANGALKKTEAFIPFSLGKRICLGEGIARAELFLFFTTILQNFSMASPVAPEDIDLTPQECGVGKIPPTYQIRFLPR
pIC50: −log10 of the molar value.
metric: pIC50

Could you share what pIC50 was measured for `COc1ccc(-c2c(-c3ccc(O)c(OC)c3)oc3cc(OC)c(OC)cc3c2=O)cc1` , tested on CYP2B6 (Homo sapiens, UniProt P20813)?
< 4.30
